test: Solubility test of argatroban in water with various compounds (shaken with excess argatroban, HPLC); type: physicochemical; details: phosphate buffer, pH 7, aqueous buffer, argatroban with γ-cyclodextrin 1.0 W/V %; phosphate buffer pH 7.0, 25° C., 12 hours
valueType: solubility thermodynamic at 12 h (µg/mL)
Numbers only, in µg/mL.

The compound CC1CNc2c(cccc2S(=O)(=O)N[C@@H](CCCNC(=N)N)C(=O)N2CC[C@@H](C)C[C@@H]2C(=O)O)C1.O (mixture of isomers) showed solubility thermodynamic at 12 h equal to 1320

====

assay: Solubility test of argatroban in water with various compounds (shaken with excess argatroban, HPLC); format: physicochemical; details: phosphate buffer, pH 7, aqueous buffer, argatroban with α-cyclodextrin 1.0 W/V %; phosphate buffer pH 7.0, 25° C., 12 hours
valueType: solubility thermodynamic at 12 h (µg/mL)
One number for each entry, in µg/mL.

Please fill in: solubility thermodynamic at 12 h reported for CC1CNc2c(cccc2S(=O)(=O)N[C@@H](CCCNC(=N)N)C(=O)N2CC[C@@H](C)C[C@@H]2C(=O)O)C1.O (mixture of isomers) = 1340
